Target: 11-beta-hydroxysteroid dehydrogenase 1 (Homo sapiens, UniProt P28845)
Sequence (P28845 whole entry): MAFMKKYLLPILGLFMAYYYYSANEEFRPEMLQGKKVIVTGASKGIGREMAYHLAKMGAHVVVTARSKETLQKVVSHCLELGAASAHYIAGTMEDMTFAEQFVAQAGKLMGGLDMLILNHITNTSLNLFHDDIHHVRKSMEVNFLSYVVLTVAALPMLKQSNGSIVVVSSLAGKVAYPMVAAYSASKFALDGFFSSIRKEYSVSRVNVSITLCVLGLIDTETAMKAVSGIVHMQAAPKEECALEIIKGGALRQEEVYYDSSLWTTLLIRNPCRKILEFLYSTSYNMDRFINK
Assay: Inhibition of human 11beta-HSD1 expressed in HEK293 cells using cortisone by ELISA
IC50 reference
Provide only the numeric value, understood in nM.

C[C@@H]1CN(c2ccc(S(C)(=O)=O)cc2)CCN1c1cccc(C(=O)NC2C3CC4CC2CC(O)(C4)C3)n1 (some centres not stated)    3.1

Exam item: What value of IC50 on 11-beta-hydroxysteroid dehydrogenase 1 (Homo sapiens, UniProt P28845) does C[C@@H]1CN(c2ccc(S(C)(=O)=O)cc2F)CCN1c1nccc(C(=O)NC2C3CC4CC2CC(O)(C4)C3)n1 (some centres not stated) have?
Marked response: 4.4
